subject_of_test: α-glucosidase
procedure_details: α-glucosidase inhibition assay
run_parameters: in vitro; read-out: α-glucosidase inhibitory activity IC50
attribute_measured: pIC50
// pIC50: -log10(molar conc.)

Task: Name the recorded pIC50 for CC(C)=CCCC1(C)C(CC=C(C)C)CC23CCC(C)(C)OC2=C(C(=O)c2ccc(O)c(O)c2)C(=O)C1(CC=C(C)C)C3=O (stereo not shown) .
Output: 4.67

====

procedure_details: cytotoxicity assay
Assay type: cell-based
run_parameters: human, HEK293 cells (normal cell line)
Description: The cytotoxic evaluation of compound 1 against the HEK293 normal cell line was applied from a previous procedure.
attribute_measured: IC50 (µM)
Kindly provide the numeric value in µM only, without the unit symbol.

Task: Name the recorded IC50 for CC(C)=CCCC1(C)C(CC=C(C)C)CC23CCC(C)(C)OC2=C(C(=O)c2ccc(O)c(O)c2)C(=O)C1(CC=C(C)C)C3=O (stereo not shown) [Compound 1, schomburgkianone I] .
Output: 87
